Origin of the recorded values: ChEMBL document CHEMBL1151198

Catalogue of selectivity ratio values
Assay: Selectivity index, ratio of IC50 for african green monkey (Cercopithecus aethiops) Vero cells to IC50 for chloroquine-sensitive Plasmodium falciparum D6
Assay type: toxicity, cell-based
Conditions: read-out: Ratio IC50
observable: selectivity ratio

[[record]]
mol = "CC[C@@H](C)C(=O)O[C@H]1C(=O)O[C@@H]2C[C@H]3C(C)=CC(=O)[C@@H](O)[C@]3(C)[C@H]3[C@@H](O)[C@H](O)[C@]4(C)OC[C@]32[C@@H]14"
op = "="
numericreadout = 750

[[record]]
mol = "C[C@@H]1CC[C@H]2[C@@H](C)C(=O)O[C@@H]3O[C@@]4(C)CC[C@@H]1[C@]32OO4"
op = ">"
numericreadout = 699

[[record]]
mol = "CC[C@@H](C)C(=O)O[C@H]1C(=O)O[C@@H]2C[C@H]3C(C)=CC(=O)[C@@H](O)[C@]3(C)[C@H]3[C@@H](OC(C)=O)[C@H](OC(C)=O)[C@]4(C)OC[C@]32[C@@H]14"
op = ">"
numericreadout = 7.4

[[record]]
mol = "CC[C@@H](C)C(=O)O[C@H]1C(=O)O[C@@H]2C[C@H]3C(C)=C[C@H](O)[C@@H](O)[C@]3(C)[C@H]3[C@@H](O)[C@@H](O)[C@]4(C)OC[C@]32[C@@H]14"
op = "="
numericreadout = 3060


###

Assay: Specific index, ratio of IC50 for mouse RAW264.7 to IC50 for iNOS production in mouse RAW264.7
observable: Ratio

[[record]]
mol = "N.S=C(S)N1CCCC1"
op = "<"
numericreadout = 0.02

[[record]]
mol = "C=C1[C@@H](C)[C@H]2[C@H](Cc3ccccc3)NC(=O)[C@]23OC(=O)/C=C/[C@H](O)CCC[C@@H](C)C/C=C/[C@H]3[C@@H]1O"
op = "="
numericreadout = 1.1

[[record]]
mol = "C[C@@H]1C[C@H]2[C@@H]3CCC4=CC(=O)C=C[C@]4(C)[C@@]3(F)[C@@H](O)C[C@]2(C)[C@@]1(O)C(=O)CO"
op = "="
numericreadout = 0.69

[[record]]
mol = "CC[C@@H](C)C(=O)O[C@H]1C(=O)O[C@@H]2C[C@H]3C(C)=CC(=O)[C@@H](O)[C@]3(C)[C@H]3[C@@H](OC(C)=O)[C@H](OC(C)=O)[C@]4(C)OC[C@]32[C@@H]14"
op = "="
numericreadout = 1

[[record]]
mol = "CC[C@@H](C)C(=O)O[C@H]1C(=O)O[C@@H]2C[C@H]3C(C)=C[C@H](O)[C@@H](O)[C@]3(C)[C@H]3[C@@H](O)[C@@H](O)[C@]4(C)OC[C@]32[C@@H]14"
op = "="
numericreadout = 0.6


###

Target: Intercellular adhesion molecule (ICAM-1), Integrin alpha-L/beta-2 (Homo sapiens, UniProt P05107+P05362+P20701)
Sequence (P20701 whole entry): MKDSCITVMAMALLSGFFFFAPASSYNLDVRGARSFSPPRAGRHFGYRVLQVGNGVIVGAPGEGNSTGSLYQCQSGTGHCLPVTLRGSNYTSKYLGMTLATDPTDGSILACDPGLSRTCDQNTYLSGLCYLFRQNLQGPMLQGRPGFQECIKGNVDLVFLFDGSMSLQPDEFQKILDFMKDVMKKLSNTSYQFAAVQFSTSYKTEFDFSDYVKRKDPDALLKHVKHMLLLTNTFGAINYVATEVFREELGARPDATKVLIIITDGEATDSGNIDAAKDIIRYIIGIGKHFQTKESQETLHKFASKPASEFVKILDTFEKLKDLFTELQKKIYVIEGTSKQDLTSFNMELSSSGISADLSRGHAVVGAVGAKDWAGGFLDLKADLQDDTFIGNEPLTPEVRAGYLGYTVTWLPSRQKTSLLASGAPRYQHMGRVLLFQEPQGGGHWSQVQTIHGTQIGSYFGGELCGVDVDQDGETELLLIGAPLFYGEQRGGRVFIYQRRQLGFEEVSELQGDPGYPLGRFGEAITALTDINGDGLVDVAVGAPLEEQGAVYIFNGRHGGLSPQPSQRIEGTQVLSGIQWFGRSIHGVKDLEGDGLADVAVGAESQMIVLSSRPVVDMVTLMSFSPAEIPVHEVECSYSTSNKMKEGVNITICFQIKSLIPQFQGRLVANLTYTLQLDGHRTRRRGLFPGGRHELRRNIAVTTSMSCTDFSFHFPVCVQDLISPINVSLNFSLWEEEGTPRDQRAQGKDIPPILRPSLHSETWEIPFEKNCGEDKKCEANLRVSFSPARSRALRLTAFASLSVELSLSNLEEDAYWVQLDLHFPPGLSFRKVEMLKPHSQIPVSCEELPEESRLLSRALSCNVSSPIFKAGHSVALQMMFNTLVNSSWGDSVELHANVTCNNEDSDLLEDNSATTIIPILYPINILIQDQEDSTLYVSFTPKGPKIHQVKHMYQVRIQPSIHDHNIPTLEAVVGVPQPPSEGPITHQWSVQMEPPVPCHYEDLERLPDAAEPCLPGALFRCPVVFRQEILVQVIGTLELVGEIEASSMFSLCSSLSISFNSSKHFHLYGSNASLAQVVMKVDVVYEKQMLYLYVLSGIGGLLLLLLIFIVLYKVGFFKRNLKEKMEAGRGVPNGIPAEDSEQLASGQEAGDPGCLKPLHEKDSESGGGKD
Sequence (P05362 whole entry): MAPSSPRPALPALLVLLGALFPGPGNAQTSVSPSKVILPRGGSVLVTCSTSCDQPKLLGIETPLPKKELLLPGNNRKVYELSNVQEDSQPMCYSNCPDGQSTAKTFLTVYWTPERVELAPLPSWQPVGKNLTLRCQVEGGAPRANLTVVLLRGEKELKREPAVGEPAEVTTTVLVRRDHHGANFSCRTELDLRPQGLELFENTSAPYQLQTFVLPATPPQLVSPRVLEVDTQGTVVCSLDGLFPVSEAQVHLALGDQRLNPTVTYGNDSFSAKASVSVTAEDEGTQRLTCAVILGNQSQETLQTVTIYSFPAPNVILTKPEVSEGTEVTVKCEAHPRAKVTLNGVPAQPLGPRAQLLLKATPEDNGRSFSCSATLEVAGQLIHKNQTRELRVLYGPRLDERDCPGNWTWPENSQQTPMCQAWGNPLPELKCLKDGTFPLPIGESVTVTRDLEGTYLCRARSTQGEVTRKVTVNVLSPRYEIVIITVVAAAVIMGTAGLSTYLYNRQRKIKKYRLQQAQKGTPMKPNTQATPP
Sequence (P05107 whole entry): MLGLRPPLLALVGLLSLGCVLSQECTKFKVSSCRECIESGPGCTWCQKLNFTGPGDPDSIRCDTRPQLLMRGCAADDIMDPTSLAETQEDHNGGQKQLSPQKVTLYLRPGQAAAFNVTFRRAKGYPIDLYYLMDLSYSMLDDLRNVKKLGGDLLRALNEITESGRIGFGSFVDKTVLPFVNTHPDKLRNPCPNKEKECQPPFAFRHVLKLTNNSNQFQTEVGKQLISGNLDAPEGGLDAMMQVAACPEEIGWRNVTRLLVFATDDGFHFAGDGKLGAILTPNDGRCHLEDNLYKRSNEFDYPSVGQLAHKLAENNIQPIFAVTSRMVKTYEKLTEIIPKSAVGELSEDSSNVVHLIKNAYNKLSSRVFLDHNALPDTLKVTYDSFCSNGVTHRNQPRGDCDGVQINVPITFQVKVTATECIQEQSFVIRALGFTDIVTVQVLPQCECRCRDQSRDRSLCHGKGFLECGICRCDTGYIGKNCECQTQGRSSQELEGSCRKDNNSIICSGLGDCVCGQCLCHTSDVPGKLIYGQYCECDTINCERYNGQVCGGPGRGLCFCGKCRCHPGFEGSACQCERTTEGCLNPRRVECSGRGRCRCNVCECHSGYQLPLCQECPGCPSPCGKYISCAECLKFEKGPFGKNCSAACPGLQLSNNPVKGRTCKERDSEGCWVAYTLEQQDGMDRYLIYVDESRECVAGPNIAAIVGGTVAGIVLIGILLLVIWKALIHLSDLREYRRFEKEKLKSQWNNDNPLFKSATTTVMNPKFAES
Assay: Inhibition of LFA1/ICAM1-mediated adhesion of HL60 cells to CHO-ICAM1 cells
pIC50: −log10 of the molar value.
observable: pIC50

[[record]]
mol = "CC[C@@H](C)C(=O)O[C@H]1C(=O)O[C@@H]2C[C@H]3C(C)=C[C@H](O)[C@@H](O)[C@]3(C)[C@H]3[C@@H](O)[C@@H](O)[C@]4(C)OC[C@]32[C@@H]14"
result = "< 4.28"

[[record]]
mol = "C=C1[C@@H](C)[C@H]2[C@H](Cc3ccccc3)NC(=O)[C@]23OC(=O)/C=C/[C@H](O)CCC[C@@H](C)C/C=C/[C@H]3[C@@H]1O"
result = 4.83

[[record]]
mol = "CC[C@@H](C)C(=O)O[C@H]1C(=O)O[C@@H]2C[C@H]3C(C)=CC(=O)[C@@H](O)[C@]3(C)[C@H]3[C@@H](O)[C@H](O)[C@]4(C)OC[C@]32[C@@H]14"
result = "< 4.28"

[[record]]
mol = "CC[C@@H](C)C(=O)O[C@H]1C(=O)O[C@@H]2C[C@H]3C(C)=CC(=O)[C@@H](O)[C@]3(C)[C@H]3[C@@H](OC(C)=O)[C@H](OC(C)=O)[C@]4(C)OC[C@]32[C@@H]14"
result = "< 4.35"

